Please go through the items and note down their YAP1 (% UTC).
# Test system: Yap1 mRNA
# procedure-details: Antisense inhibition of human Yap1 in A-431 cells by cEt gapmers, single dose (Example 3, RTS36584)
# Format: cell-based
# setup-conditions: Table 26; Yap1 mRNA by 3-10-3 cEt gapmers targeting SEQ ID NO.: 1, and 2; percent of untreated control
Strand notation (5' to 3'): a small letter for the sugar, then the base; units joined by * are phosphorothioate-linked, units joined directly phosphodiester-linked; [ ] holds rarer units or linkages, { } end groups; capitals alone tell only the bases. k = constrained ethyl (cEt); [5mC] = 5-methylcytosine; d = 2'-deoxy (DNA)

Look up and report measured YAP1 (% UTC) for this entry: 1075404 (antisense kA*kT*kA*dT*dA*dA*d[5mC]*d[5mC]*dT*dG*dA*dA*d[5mC]*kT*kA*kA) [compound 1075404]
102 % UTC

For the substance 1076492 (kA*kA*kA*dA*dG*dA*dT*dA*d[5mC]*d[5mC]*d[5mC]*d[5mC]*d[5mC]*kA*kG*kT; antisense) [compound 1076492] , report YAP1 (% UTC).
47 % UTC

Give a short answer stating reported YAP1 (% UTC) for 1076300 (kA*kA*kA*dA*dA*dA*dT*dG*dG*d[5mC]*dT*dT*d[5mC]*kA*k[5mC]*kG; antisense) [compound 1076300] .
22 % UTC

---

# Test system: Yap1 mRNA
# procedure-details: Antisense inhibition of human Yap1 in A-431 cells by cEt gapmers, single dose (Example 2, RTS4814)
# Format: cell-based
# setup-conditions: Yap1 mRNA as percent of untreated control; A-431 cells; 3-10-3 cEt gapmers targeting SEQ ID NO.: 1, and 2; Table 31
Strand notation (5' to 3'): a small letter for the sugar, then the base; units joined by * are phosphorothioate-linked, units joined directly phosphodiester-linked; [ ] holds rarer units or linkages, { } end groups; capitals alone tell only the bases. k = constrained ethyl (cEt); [5mC] = 5-methylcytosine; d = 2'-deoxy (DNA)
test-readout: YAP1 (% UTC)
Your answer should be a number followed by the unit of measure.

For 958499 (ATTAGAGTATGTGGCA; 3-10-3 cEt gapmer, further chemistry not given here) [compound 958499] , write its YAP1 (% UTC).
1 % UTC

Could you please provide reported YAP1 (% UTC) for 1075409 (antisense k[5mC]*kT*kT*dT*dA*dA*dA*dT*dA*dG*d[5mC]*dA*dG*kA*kG*kG) [compound 1075409] ? Thanks!
22 % UTC

Identify YAP1 (% UTC) associated with the substance 1074609 (DNA k[5mC]*kT*kA*dG*dT*dT*dA*d[5mC]*dA*dT*d[5mC]*dA*dT*k[5mC]*kT*k[5mC]) [compound 1074609]
8 % UTC

Report measured YAP1 (% UTC); entry is 1074385 (k[5mC]*kT*kT*d[5mC]*dA*dA*dG*dG*dT*dA*dG*dT*d[5mC]*kT*kG*kG; antisense) [compound 1074385]
17 % UTC

Note down YAP1 (% UTC) recorded for 1074257 (antisense kG*k[5mC]*kA*d[5mC]*dT*dG*dG*dT*dG*dG*dA*d[5mC]*dT*kG*kG*kT) [compound 1074257]
29 % UTC

Please report YAP1 (% UTC) for the following substance: 1075537 (k[5mC]*kT*kT*dT*dA*dA*dT*dT*dA*d[5mC]*d[5mC]*d[5mC]*dA*kA*kG*kG; antisense) [compound 1075537]
82 % UTC

Note down YAP1 (% UTC) recorded for 1074833 (kT*kG*k[5mC]*dG*dA*dG*dG*dA*dT*dA*dA*dA*dA*kT*k[5mC]*k[5mC]; antisense) [compound 1074833]
17 % UTC

State, in one line, measured YAP1 (% UTC) of 1075601 (antisense kA*k[5mC]*kA*d[5mC]*dT*dA*dT*dA*dA*dT*d[5mC]*dT*dG*kA*k[5mC]*k[5mC]) [compound 1075601]
50 % UTC

Give a short answer stating reported YAP1 (% UTC) for 1075697 (kA*kA*kT*dA*dA*dT*d[5mC]*d[5mC]*dA*dT*dG*d[5mC]*dT*kT*kG*k[5mC]; antisense) [compound 1075697] .
16 % UTC

Input 1075281 (antisense k[5mC]*kA*kG*d[5mC]*dA*dA*dA*dA*dG*dT*dA*d[5mC]*d[5mC]*kA*kT*kG) [compound 1075281] , output reported YAP1 (% UTC).
36 % UTC

Identify measured YAP1 (% UTC) associated with 1074641 (antisense kG*kG*k[5mC]*d[5mC]*dA*dA*dA*dA*dT*dA*d[5mC]*dT*dT*kA*kG*kA) [compound 1074641]
107 % UTC

Using the record for 1074929 (antisense kT*kA*kT*dA*d[5mC]*dA*dA*d[5mC]*dA*dG*dG*d[5mC]*d[5mC]*kT*kG*k[5mC]) [compound 1074929] , state its measured YAP1 (% UTC).
79 % UTC
